// reported normalized growth per item
Assay: chemical genetic growth profiling, strain panel (AID 1159580);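 note: tested at 20 µM; growth read once vehicle control cultures reached saturation at 30 °C; 1 = growth at the plate median or of vehicle wells; lower values mean less growth of the strain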
Settings: S. cerevisiae deletion strains, growth OD, locus YJR043C, strain POL32, stronger effect = lower value
The whole screen tested about 5,500 compounds, of which about 2,000 (36%) were called active. Roughly 18% stayed inconclusive and do not appear here. Some of the results follow.

{"Compound": "CC1(C)S[C@@H]2[C@H](NC(=O)COc3ccccc3)C(=O)N2[C@H]1C(=O)O", "normalized growth": 1.01}
{"Compound": "CCOC(=O)c1csc(N/N=C2/CCCc3ccccc32)n1", "normalized growth": 0.965}
{"Compound": "C[N+]1(C)C2CC[C@H]1CC(OC(=O)C(O)c1ccccc1)C2 (some centres undefined)", "normalized growth": 1}
{"Compound": "CCN(CC)CCNC(=O)COc1ccc(OC)cc1", "normalized growth": 0.971}
{"Compound": "COc1c2occc2cc2ccc(=O)oc12", "normalized growth": 0.953}
{"Compound": "COc1cc2ccc(=O)oc2c2ccoc12", "normalized growth": 0.921}
{"Compound": "C/C=C(\\C)C(=O)OC1[C@@H]2C=C3C4CC(=O)O[C@@H](c5ccoc5)[C@]4(C)CCC3[C@@](C)(C2=O)[C@@H](C(O)C(=O)OC)C1(C)C (some centres undefined)", "normalized growth": 0.983}
{"Compound": "CCCCCN=C(N)N/N=C\\c1c[nH]c2ccc(OC)cc12", "normalized growth": 0.989}
{"Compound": "COc1ccc(-c2c(C(=O)O)sc(SC)c2C#N)cc1", "normalized growth": 0.981}
{"Compound": "COc1cc(NC(=O)Nc2ccc(OC(F)(F)F)cc2)cc(C(F)(F)F)c1", "normalized growth": 0.999}
{"Compound": "S=c1[nH]nc(-c2ccco2)n1-c1ccc2c(c1)OCCO2", "normalized growth": 0.987}
{"Compound": "COc1ccc(-n2c(SCc3ccc(Br)cc3)nnc2-c2ccco2)cc1", "normalized growth": 0.98}
{"Compound": "CCCc1cc(C(=O)Nc2ccc(N(CC)CC)cc2)nn1-c1ccccc1", "normalized growth": 0.973}
{"Compound": "O=C(NC(c1ccccc1)C(N=Cc1ccccc1)c1ccccc1)c1ccccc1 (centres undefined)", "normalized growth": 1.02}

* * *

Test: chemical genetic growth profiling, strain panel (AID 1159580);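 note: tested at 20 µM; growth read once vehicle control cultures reached saturation at 30 °C; 1 = growth at the plate median or of vehicle wells; lower values mean less growth of the strain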
Settings: S. cerevisiae deletion strains, growth OD, locus YHR030C, strain SLT2
In all, about 5,500 compounds went through this assay and about 2,000 (36%) were called active. Roughly 18% stayed inconclusive and do not appear here. Rule as the data show it: active = normalized growth mostly below about 0.91 (no sharp cut-off); inconclusive = no clear call, values can overlap the other calls; inactive = mostly above about 0.92. The list shows a part of the results.
Outcomes: active, inactive

{"Compound": "N#CC(C#N)=NNc1cc(C(F)(F)F)ccc1OCC(F)(F)F", "Label Value": "active"}
{"Compound": "CC(C)(CO)[C@@H](O)C(=O)NCCC(=O)O", "Label Value": "inactive"}
{"Compound": "CCCCC/C=C\\C/C=C\\C/C=C\\C/C=C\\CCCC(=O)O", "Label Value": "inactive"}
{"Compound": "COc1ccccc1N1CCN(S(=O)(=O)c2ccc(C(F)(F)F)cc2)CC1", "Label Value": "inactive"}
{"Compound": "CCOC(=O)C(NC(C)=O)(Nc1ccc(F)c(Cl)c1)C(F)(F)F (stereo unspecified)", "Label Value": "active"}
{"Compound": "COC(=O)c1c(OC)ccc(N=CNO)c1OC", "Label Value": "inactive"}
{"Compound": "Cc1nc(C(F)(F)F)ccc1-c1nnc(SC(=O)c2ccc(Cl)cc2)o1", "Label Value": "active"}
{"Compound": "N#CC(C#N)=NNc1ccc(C(F)(F)F)cc1", "Label Value": "active"}
{"Compound": "O=C(Nc1ccc(OC(F)(F)F)cc1)Nc1cncc(C(F)(F)F)c1", "Label Value": "active"}
{"Compound": "CSCCC(NC=O)C(=O)NC(CC(C)C)C(=O)NC(Cc1ccccc1)C(=O)O (stereo unspecified)", "Label Value": "inactive"}
{"Compound": "O=C1c2ccc(O)c(O)c2C(=O)c2c(O)ccc(O)c21", "Label Value": "inactive"}

* * *

Experiment: chemical genetic growth profiling, strain panel (AID 1159580);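 note: tested at 20 µM; growth read once vehicle control cultures reached saturation at 30 °C; 1 = growth at the plate median or of vehicle wells; lower values mean less growth of the strain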
Conditions: S. cerevisiae deletion strains, growth OD, locus YDR502C, strain sam2, stronger effect = lower value
Hit rate of the full screen: of about 5,500 compounds, about 2,000 (36%) were called active. Roughly 18% stayed inconclusive and do not appear here. Some of the results follow.

{"Compound": "COc1cc2c(cc1-c1coc3c4c(c(OC)cc3c1=O)OC(C)(C)C=C4)OCO2", "normalized growth": 0.97}
{"Compound": "Cc1cc(O)c2c(c1O)C(=O)c1c(O)cc(C)c(O)c1C2=O", "normalized growth": 1}
{"Compound": "C/C=C(\\C)C(=O)OC1[C@@H]2C=C3C4CC(=O)O[C@@H](c5ccoc5)[C@]4(C)CCC3[C@@](C)(C2=O)[C@@H](C(O)C(=O)OC)C1(C)C (stereo not given in full)", "normalized growth": 1.03}
{"Compound": "CC1=C(C(=O)O)N2C(=O)[C@@H](NC(=O)[C@H](N)C3=CCC=CC3)C2SC1 (stereo not given in full)", "normalized growth": 1.02}
{"Compound": "Cn1c(=O)[nH]c(=O)c2[nH]cnc21", "normalized growth": 0.982}

* * *

Assay: chemical genetic growth profiling, strain panel (AID 1159580);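 note: tested at 20 µM; growth read once vehicle control cultures reached saturation at 30 °C; 1 = growth at the plate median or of vehicle wells; lower values mean less growth of the strain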
Details: S. cerevisiae deletion strains, growth OD, locus YBR023C, strain chs3
Screen size: about 5,500 compounds; about 2,000 (36%) were called active. Roughly 18% stayed inconclusive and do not appear here. Cut-off read from the data, not from the text of the source: active = normalized growth mostly below about 0.91 (no sharp cut-off); inconclusive = no clear call, values can overlap the other calls; inactive = mostly above about 0.92. The list shows a part of the results.
Outcome codes: active, inactive

{"Compound": "O=C1c2ccc(O)c(O)c2C(=O)c2c(O)ccc(O)c21", "Label Value": "active"}
{"Compound": "CC(C)=CCc1c(O)cc2occ(-c3ccc4c(c3)OCO4)c(=O)c2c1O", "Label Value": "active"}
{"Compound": "CC(=O)OCC(=O)[C@@]1(O)CCC2C3CCC4=CC(=O)CC[C@]4(C)[C@@]3(F)[C@@H](O)C[C@@]21C (some centres undefined)", "Label Value": "inactive"}
{"Compound": "Cn1nnnc1SCC1=C(C(=O)O)N2C(=O)C(NC(=O)C(OC=O)c3ccccc3)C2SC1 (centres undefined)", "Label Value": "inactive"}
{"Compound": "Nc1ncnc2nc[nH]c12", "Label Value": "inactive"}
{"Compound": "COc1cc(OC)c(C(C)=O)c(O)c1C", "Label Value": "active"}
{"Compound": "CC(C)(O)CC[C@@H](O)[C@](C)(O)C1CC[C@@]2(O)C3=CC(=O)C4C[C@@H](O)[C@@H](O)C[C@]4(C)C3CC[C@]12C (some centres undefined)", "Label Value": "inactive"}
{"Compound": "O=c1c(-c2ccc3c(c2)OCO3)coc2cc(O)ccc12", "Label Value": "inactive"}
{"Compound": "CC(C)CCCC(C)[C@H]1CCC2C3CC[C@H]4CC(=O)CC[C@]4(C)C3CC[C@@]21C (some centres undefined)", "Label Value": "inactive"}
{"Compound": "COC(=O)C1=CO[C@@H](O[C@@H]2O[C@H](CO)[C@@H](O)[C@H](O)[C@H]2O)[C@@H]2[C@@H](C)[C@@H](O)C[C@H]12", "Label Value": "inactive"}
{"Compound": "CC(=O)O[C@H]1CC2CCC3C(CC[C@@]4(C)C3C[C@H]([N+]3(C)CCCCC3)[C@@H]4OC(C)=O)[C@@]2(C)C[C@@H]1[N+]1(C)CCCCC1 (some centres undefined)", "Label Value": "inactive"}
{"Compound": "COc1cc(O)c(C)c(O)c1", "Label Value": "inactive"}
{"Compound": "CSCCC(NC=O)C(=O)NC(CC(C)C)C(=O)NC(Cc1ccccc1)C(=O)O (centres undefined)", "Label Value": "inactive"}
{"Compound": "OC[C@@H](O)C(O[C@@H]1O[C@H](CO)[C@H](O)[C@H](O)[C@H]1O)[C@H](O)[C@@H](O)CO (some centres undefined)", "Label Value": "inactive"}
{"Compound": "COc1cc2ccc(=O)oc2c2ccoc12", "Label Value": "inactive"}
{"Compound": "Cn1c(=O)[nH]c(=O)c2[nH]cnc21", "Label Value": "inactive"}
{"Compound": "FC(F)(F)COCC(F)(F)F", "Label Value": "inactive"}
{"Compound": "O=c1[nH]c2ccccc2n1CCCN1CCC(n2c(=O)[nH]c3cc(Cl)ccc32)CC1", "Label Value": "inactive"}
{"Compound": "CC(=O)Oc1ccc2c(c1)CCC1C2CCC2(C)C1CC(OC(C)=O)C2OC(C)=O (centres undefined)", "Label Value": "inactive"}
{"Compound": "CC1(C)S[C@@H]2[C@H](NC(=O)COc3ccccc3)C(=O)N2[C@H]1C(=O)O", "Label Value": "inactive"}
{"Compound": "CC(=O)Oc1ccc2c(c1)CCC1C2CC[C@@]2(C)C1CC[C@@H]2OC(C)=O (some centres undefined)", "Label Value": "inactive"}
{"Compound": "CC(C)=CCC1=C(O)c2ccccc2C(=O)C1=O", "Label Value": "active"}
{"Compound": "COP(=S)(OC)SCn1nnc2ccccc2c1=O", "Label Value": "inactive"}
{"Compound": "Cc1c(N(C)CS(=O)(=O)O)c(=O)n(-c2ccccc2)n1C", "Label Value": "inactive"}
{"Compound": "CCOc1ccc(Cc2nccc3cc(OCC)c(OCC)cc23)cc1OCC", "Label Value": "inactive"}
{"Compound": "c1coc(CNc2ncnc3nc[nH]c23)c1", "Label Value": "inactive"}
{"Compound": "COc1cc(OC)c2c(c1Cl)OC1(C2=O)C(O)=CC(=O)CC1C (centres undefined)", "Label Value": "inactive"}
{"Compound": "CC(=O)N[C@@H](CC(=O)O)C(=O)O", "Label Value": "inactive"}
{"Compound": "O=c1[nH]c2ccccc2n1C1CCN(CCCC(c2ccc(F)cc2)c2ccc(F)cc2)CC1", "Label Value": "inactive"}
